Each recorded value in this set is attributed to the supplement of paper PMC6555819.

Test system: RXRa DBDmut IVT, anti-RXR (DBD mutation: RXRa K156A/R161A, NR concentration 90 nM)
assay_method_text: PBM binding z-score (relative to random genomic background probes); higher = stronger binding; sequences stand for … in GC…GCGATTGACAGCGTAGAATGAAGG
Everything with PBM binding z-score lower than 1 is no (0); everything else, including exactly 1, is yes (1).

{"columns": ["residue_string", "tested_target", "group"],
 "data": [
  ["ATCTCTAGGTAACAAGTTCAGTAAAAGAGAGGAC", "RXRa DBDmut IVT, anti-RXR (DBD mutation: RXRa K156A/R161A, NR concentration 90 nM)", "yes (1)"],
  ["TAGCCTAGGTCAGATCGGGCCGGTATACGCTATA", "RXRa DBDmut IVT, anti-RXR (DBD mutation: RXRa K156A/R161A, NR concentration 90 nM)", "no (0)"],
  ["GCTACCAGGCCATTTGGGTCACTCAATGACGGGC", "RXRa DBDmut IVT, anti-RXR (DBD mutation: RXRa K156A/R161A, NR concentration 90 nM)", "no (0)"],
  ["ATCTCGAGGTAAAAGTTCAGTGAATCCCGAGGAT", "RXRa DBDmut IVT, anti-RXR (DBD mutation: RXRa K156A/R161A, NR concentration 90 nM)", "no (0)"],
  ["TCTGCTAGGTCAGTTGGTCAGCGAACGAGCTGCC", "RXRa DBDmut IVT, anti-RXR (DBD mutation: RXRa K156A/R161A, NR concentration 90 nM)", "no (0)"],
  ["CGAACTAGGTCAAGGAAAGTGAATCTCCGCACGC", "RXRa DBDmut IVT, anti-RXR (DBD mutation: RXRa K156A/R161A, NR concentration 90 nM)", "yes (1)"],
  ["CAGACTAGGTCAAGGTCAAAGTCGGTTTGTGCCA", "RXRa DBDmut IVT, anti-RXR (DBD mutation: RXRa K156A/R161A, NR concentration 90 nM)", "yes (1)"],
  ["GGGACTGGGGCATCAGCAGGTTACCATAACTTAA", "RXRa DBDmut IVT, anti-RXR (DBD mutation: RXRa K156A/R161A, NR concentration 90 nM)", "no (0)"],
  ["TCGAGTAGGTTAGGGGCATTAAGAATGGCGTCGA", "RXRa DBDmut IVT, anti-RXR (DBD mutation: RXRa K156A/R161A, NR concentration 90 nM)", "no (0)"],
  ["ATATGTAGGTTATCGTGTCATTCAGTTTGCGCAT", "RXRa DBDmut IVT, anti-RXR (DBD mutation: RXRa K156A/R161A, NR concentration 90 nM)", "yes (1)"],
  ["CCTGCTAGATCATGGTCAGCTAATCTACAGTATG", "RXRa DBDmut IVT, anti-RXR (DBD mutation: RXRa K156A/R161A, NR concentration 90 nM)", "no (0)"],
  ["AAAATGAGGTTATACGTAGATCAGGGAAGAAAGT", "RXRa DBDmut IVT, anti-RXR (DBD mutation: RXRa K156A/R161A, NR concentration 90 nM)", "yes (1)"]
]}

----------
Known PBM binding z-score of a selection of sequences
System: LXRb homodimer (NR concentration 270 nM)
assay_method_text: PBM binding z-score (relative to random genomic background probes); higher = stronger binding; sequences stand for … in GC…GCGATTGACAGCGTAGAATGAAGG
measurement_label: PBM binding z-score

{"columns": ["residue_string", "measurement"],
 "data": [
  ["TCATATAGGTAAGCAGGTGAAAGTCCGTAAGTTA", -0.523],
  ["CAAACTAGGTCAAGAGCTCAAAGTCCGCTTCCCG", 0.0048],
  ["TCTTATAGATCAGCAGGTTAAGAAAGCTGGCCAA", -0.379],
  ["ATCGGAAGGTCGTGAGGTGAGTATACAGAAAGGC", 0.0341],
  ["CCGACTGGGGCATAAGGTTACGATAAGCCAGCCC", -1.42],
  ["GGAACGAGGGCATGCGAGTTGATAGCATGGCGAT", -1.37]
]}

----------
Tested on: PXR:RXRa (NR concentration 270 nM, RXRa partner concentration 90 nM)
assay_method_text: PBM binding z-score (relative to random genomic background probes); higher = stronger binding; sequences stand for … in GC…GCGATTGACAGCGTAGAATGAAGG

{"columns": ["residue_string", "PBM binding z-score"],
 "data": [
  ["CCAGACAGGTGAGAGGTAACTCAGTCTGGTACGC", -0.00466],
  ["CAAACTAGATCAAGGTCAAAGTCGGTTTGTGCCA", 4.01],
  ["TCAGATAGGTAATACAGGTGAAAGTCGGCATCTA", 0.557],
  ["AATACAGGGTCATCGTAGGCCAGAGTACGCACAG", 4.94],
  ["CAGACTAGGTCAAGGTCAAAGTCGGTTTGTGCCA", 5.16],
  ["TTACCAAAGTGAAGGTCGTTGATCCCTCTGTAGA", 1.15],
  ["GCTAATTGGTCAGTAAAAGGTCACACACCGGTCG", 4.83],
  ["GCTAGTTGGTCACTAAAAGGTCACACACCGGTCG", 5.01],
  ["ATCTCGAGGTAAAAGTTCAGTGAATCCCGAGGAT", 2.53],
  ["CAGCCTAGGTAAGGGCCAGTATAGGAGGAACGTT", -0.698],
  ["ACTTTTAGTTGAGACGAGGGCAACCGATAGGTTG", 1.33],
  ["CAAACTAGGTCAAGAGGTCTAAGTCCGCTTCCCG", 1.66],
  ["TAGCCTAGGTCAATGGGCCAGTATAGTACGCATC", 0.686],
  ["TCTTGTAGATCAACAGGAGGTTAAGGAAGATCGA", 0.485],
  ["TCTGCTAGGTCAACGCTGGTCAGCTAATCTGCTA", 2],
  ["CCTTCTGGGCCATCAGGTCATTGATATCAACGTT", 1.64],
  ["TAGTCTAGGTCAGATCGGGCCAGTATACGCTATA", 1.33],
  ["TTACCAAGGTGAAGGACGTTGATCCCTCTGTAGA", 0.213],
  ["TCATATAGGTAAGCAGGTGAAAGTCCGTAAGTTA", 0.257],
  ["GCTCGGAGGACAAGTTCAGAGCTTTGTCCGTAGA", 0.977],
  ["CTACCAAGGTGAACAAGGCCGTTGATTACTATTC", 0.327],
  ["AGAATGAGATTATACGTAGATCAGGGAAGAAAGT", -0.502],
  ["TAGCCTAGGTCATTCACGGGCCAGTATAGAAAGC", 2.01],
  ["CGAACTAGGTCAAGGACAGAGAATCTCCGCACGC", 0.886],
  ["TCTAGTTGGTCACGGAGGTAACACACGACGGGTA", 0.407],
  ["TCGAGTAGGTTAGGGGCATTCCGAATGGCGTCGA", 0.385]
]}

----------
System: LXRb:RXRa (NR concentration 270 nM, RXRa partner concentration 90 nM)
assay_method_text: PBM binding z-score (relative to random genomic background probes); higher = stronger binding; sequences stand for … in GC…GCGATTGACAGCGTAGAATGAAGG
This section presents sequences with their documented PBM binding z-score values.

{"columns": ["residue_string", "PBM binding z-score"],
 "data": [
  ["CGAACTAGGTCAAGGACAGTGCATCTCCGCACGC", 1.38],
  ["AGAATGAGGTTATACGTAGATAAGGGAAGAAAGT", 1.56],
  ["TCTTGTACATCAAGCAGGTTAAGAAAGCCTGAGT", 0.861],
  ["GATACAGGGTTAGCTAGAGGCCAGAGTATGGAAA", 0.181],
  ["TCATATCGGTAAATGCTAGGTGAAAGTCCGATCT", 0.39],
  ["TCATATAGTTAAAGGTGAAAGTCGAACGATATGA", 1.25],
  ["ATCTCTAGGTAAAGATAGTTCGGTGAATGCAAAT", 0.0902],
  ["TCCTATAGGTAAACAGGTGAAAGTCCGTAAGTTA", 0.845],
  ["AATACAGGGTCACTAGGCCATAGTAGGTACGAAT", 4],
  ["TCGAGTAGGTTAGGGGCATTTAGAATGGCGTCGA", 0.871],
  ["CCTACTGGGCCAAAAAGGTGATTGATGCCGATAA", -0.234],
  ["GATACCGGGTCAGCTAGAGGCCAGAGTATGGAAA", 1.21],
  ["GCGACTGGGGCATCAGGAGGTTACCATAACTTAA", 0.842],
  ["ATTGAAAGGTCGAGGTGAGTATAGAGAAAGGGAA", 2.93],
  ["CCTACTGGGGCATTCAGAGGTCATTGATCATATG", 3.91],
  ["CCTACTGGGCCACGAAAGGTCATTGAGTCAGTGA", 4.4],
  ["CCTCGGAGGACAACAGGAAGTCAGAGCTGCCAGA", -0.667],
  ["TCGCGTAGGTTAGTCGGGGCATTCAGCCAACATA", 0.83],
  ["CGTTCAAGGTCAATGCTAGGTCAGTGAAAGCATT", 4.36],
  ["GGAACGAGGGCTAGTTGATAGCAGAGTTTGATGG", -0.908],
  ["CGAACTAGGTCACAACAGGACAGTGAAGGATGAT", 2.17],
  ["GGAAAGAGGGCAAAGTTGATAGCATCTGTCGACG", 1.64],
  ["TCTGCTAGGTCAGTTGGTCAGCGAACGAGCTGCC", 0.166],
  ["AGAATGAGGTTATTAAGATCGGGGAATTGCGGTC", 1.14],
  ["CCTCCTGGGCCAAAGGTCATTGATTCCAATGCTC", 4.79],
  ["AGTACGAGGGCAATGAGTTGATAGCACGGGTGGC", 0.0796],
  ["CCTGCTAGGTCATGGTCAGCAAATCTACAGTATG", 1.71],
  ["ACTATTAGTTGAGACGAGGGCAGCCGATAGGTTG", -0.195],
  ["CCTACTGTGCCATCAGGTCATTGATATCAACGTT", 2.75],
  ["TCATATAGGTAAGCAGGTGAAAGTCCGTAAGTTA", 0.39],
  ["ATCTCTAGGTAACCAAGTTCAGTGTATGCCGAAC", 0.524],
  ["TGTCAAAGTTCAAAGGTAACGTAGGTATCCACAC", 4.46],
  ["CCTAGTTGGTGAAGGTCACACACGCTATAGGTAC", 3.42],
  ["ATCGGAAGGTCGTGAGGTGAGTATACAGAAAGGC", 1.69],
  ["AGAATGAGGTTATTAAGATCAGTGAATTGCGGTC", 1.27],
  ["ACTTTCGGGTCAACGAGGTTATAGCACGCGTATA", 4.56],
  ["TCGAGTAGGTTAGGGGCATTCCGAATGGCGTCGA", 0.645],
  ["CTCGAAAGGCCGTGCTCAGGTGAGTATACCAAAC", -0.298],
  ["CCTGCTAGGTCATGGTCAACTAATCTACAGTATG", 1.98],
  ["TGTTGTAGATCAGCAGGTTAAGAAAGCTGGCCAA", -0.397],
  ["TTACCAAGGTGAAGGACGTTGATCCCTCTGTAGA", 0.414],
  ["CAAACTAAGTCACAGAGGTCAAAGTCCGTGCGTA", 5.22],
  ["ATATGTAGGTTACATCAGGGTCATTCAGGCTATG", 3.97],
  ["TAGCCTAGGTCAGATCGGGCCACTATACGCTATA", 0.919],
  ["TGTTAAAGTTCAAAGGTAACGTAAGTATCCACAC", 4.53],
  ["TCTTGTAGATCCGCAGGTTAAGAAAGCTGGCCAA", 0.303],
  ["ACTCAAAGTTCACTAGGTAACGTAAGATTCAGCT", 3.55],
  ["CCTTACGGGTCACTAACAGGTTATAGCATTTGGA", 3.4],
  ["CCTCGGAGGACAGAAGGCCAGAGCTGTCCGCTTT", -1.28],
  ["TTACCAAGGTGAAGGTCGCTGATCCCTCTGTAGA", 0.689],
  ["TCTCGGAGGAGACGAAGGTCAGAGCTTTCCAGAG", 0.569]
]}
